# System: cancer cell lines from Acute Monocytic/Myelogenous Leukemia (AML) origin
# assay-method-text: Cell growth/death assay (CellTiter-Glo 3-day continuous exposure)
# Format: cell-based, human
# condition-summary: Homo sapiens; in 13 out of 15 AML cell lines; 72 hours; read-out: gIC50
pIC50: −log10 of the molar value.
property-name: pIC50

Problem: Please give the measured pIC50 for this compound: CC(=O)Nc1cccc(-n2c(=O)n(C3CC3)c(=O)c3c(Nc4ccc(I)cc4F)n(C)c(=O)c(C)c32)c1 [Compound A]
Result: > 6.70
